# assayed system: SARS-CoV-2 nucleocapsid (N) protein (SARS-CoV-2, UniProt P0DTC9 2-419)
# protocol text: SV-AUC; […], pH 7.4; ITC at 20 C; […] (137 mM NaCl)
# settings: protein: commercial; tags: C-terminal His-tag; chain copies: 2; single strand
Quick reference for Kd among some binders
measured metric: Kd

1. GTGT (ssDNA) [(GT)2]	> 10 µM
2. TTTTTTTTTT (ssDNA) [T10]	< 0.1 µM

Cited source: paper doi:10.1101/2021.02.08.430344
